# Measurement Protocol: Plasma concentration of Compound 1 in DU145 PK/PD cohort
# Format: in vivo
# Condition Context: BALB/c nude, mouse, plasma, intraperitoneal, 15 mg/kg, 15 mg/kg BIW 3 doses IP; 4 hours post last dose; group 5; read-out: Plasma Concentration of Compound 1, Mean
Measured Quantity: concentration at 4 h (ng/mL)
Give the number; ng/mL is assumed, so skip it.

Ask: Tell me measured concentration at 4 h for COc1cc(-c2cn(C)c(=O)c3cnc(N4CCC4)cc23)cc(OC)c1CN1CCC(CN2CCC3(CC2)CN(c2ccc4c(c2)C(=O)N(C2CCC(=O)NC2=O)C4)C3)CC1 (stereo not shown) please.
Result: 72.5

====

# Measurement Protocol: Plasma concentration of Compound 1 in DU145 PK/PD cohort
# Format: in vivo
# Condition Context: BALA/c nude (sic, BALB/c nude), mouse, plasma, intraperitoneal, 1 mg/kg, 1 mg/kg single dose IP; 72 hours post last dose; group 2; read-out: Plasma Concentration of Compound 1, Mean
# Protocol: Procedure: The experimental details of the studies, including tumor model, mouse strain, cell number implanted, vehicle used, days of treatment, treatment details, and average tumor size at start of dosing are outlined in Table 3. All study mice were obtained and the studies were conducted at Pharmaron. […] In the case of an animal reaching a tumor size exceeding 2000 mm^3, the entire group was terminated. […] For the Efficacy Cohort, the tumors were analyzed for BRD9 levels by Western Blotting (WB).
Measured Quantity: concentration at 72 h (ng/mL)
Give the number; ng/mL is assumed, so skip it.

Ask: Tell me measured concentration at 72 h for COc1cc(-c2cn(C)c(=O)c3cnc(N4CCC4)cc23)cc(OC)c1CN1CCC(CN2CCC3(CC2)CN(c2ccc4c(c2)C(=O)N(C2CCC(=O)NC2=O)C4)C3)CC1 (stereo not shown) please.
Result: 1.39

====

# Measurement Protocol: Plasma concentration of Compound 1 in DU145 PK/PD cohort
# Format: in vivo
# Condition Context: BALB/c nude, mouse, plasma, intraperitoneal, 15 mg/kg, 15 mg/kg single dose IP; 4 hours post last dose; group 3; read-out: Plasma Concentration of Compound 1 (individual mice)
Measured Quantity: concentration at 4 h (ng/mL)
Give the number; ng/mL is assumed, so skip it.

Ask: Tell me measured concentration at 4 h for COc1cc(-c2cn(C)c(=O)c3cnc(N4CCC4)cc23)cc(OC)c1CN1CCC(CN2CCC3(CC2)CN(c2ccc4c(c2)C(=O)N(C2CCC(=O)NC2=O)C4)C3)CC1 (stereo not shown) [Compound 1] please.
Result: 147

====

# Measurement Protocol: Plasma concentration of Compound 1 in DU145 PK/PD cohort
# Format: in vivo
# Condition Context: BALA/c nude (sic, BALB/c nude), mouse, plasma, intraperitoneal, 15 mg/kg, 15 mg/kg single dose IP; 72 hours post last dose; group 3; read-out: Plasma Concentration of Compound 1, Mean
Measured Quantity: concentration at 72 h (ng/mL)
Give the number; ng/mL is assumed, so skip it.

Ask: Tell me measured concentration at 72 h for COc1cc(-c2cn(C)c(=O)c3cnc(N4CCC4)cc23)cc(OC)c1CN1CCC(CN2CCC3(CC2)CN(c2ccc4c(c2)C(=O)N(C2CCC(=O)NC2=O)C4)C3)CC1 (stereo not shown) [Compound 1] please.
Result: 31.5

====

# Measurement Protocol: Plasma concentration of Compound 1 in DU145 PK/PD cohort
# Type: in vivo
# Condition Context: BALB/c nude, mouse, plasma, intraperitoneal, 1 mg/kg, 1 mg/kg BIW 3 doses IP; 4 hours post last dose; group 4; read-out: Plasma Concentration of Compound 1, Mean
Measured Quantity: concentration at 4 h (ng/mL)
Give the number; ng/mL is assumed, so skip it.

Ask: Tell me measured concentration at 4 h for COc1cc(-c2cn(C)c(=O)c3cnc(N4CCC4)cc23)cc(OC)c1CN1CCC(CN2CCC3(CC2)CN(c2ccc4c(c2)C(=O)N(C2CCC(=O)NC2=O)C4)C3)CC1 (stereo not shown) please.
Result: 10.8

====

# Measurement Protocol: Plasma concentration of Compound 1 in DU145 PK/PD cohort
# Assay type: in vivo
# Condition Context: BALA/c nude (sic, BALB/c nude), mouse, plasma, intraperitoneal, 15 mg/kg, 15 mg/kg BIW 3 doses IP; 72 hours post last dose; group 5; read-out: Plasma Concentration of Compound 1 (individual mice)
# Method: Procedure: The experimental details of the studies, including tumor model, mouse strain, cell number implanted, vehicle used, days of treatment, treatment details, and average tumor size at start of dosing are outlined in Table 3. All study mice were obtained and the studies were conducted at Pharmaron. […] In the case of an animal reaching a tumor size exceeding 2000 mm^3, the entire group was terminated. […] For the Efficacy Cohort, the tumors were analyzed for BRD9 levels by Western Blotting (WB).
Measured Quantity: concentration at 72 h (ng/mL)
Give the number; ng/mL is assumed, so skip it.

Ask: Tell me measured concentration at 72 h for COc1cc(-c2cn(C)c(=O)c3cnc(N4CCC4)cc23)cc(OC)c1CN1CCC(CN2CCC3(CC2)CN(c2ccc4c(c2)C(=O)N(C2CCC(=O)NC2=O)C4)C3)CC1 (stereo not shown) please.
Result: 6.43

====

# Measurement Protocol: Plasma concentration of Compound 1 in DU145 PK/PD cohort
# Format: in vivo
# Condition Context: BALA/c nude (sic, BALB/c nude), mouse, plasma, intraperitoneal, 1 mg/kg, 1 mg/kg single dose IP; 72 hours post last dose; group 2; BLOQ = below quantifiable limit of 1.05 ng/mL; read-out: Plasma Concentration of Compound 1 (individual mice)
Measured Quantity: concentration at 72 h (ng/mL)
Give the number; ng/mL is assumed, so skip it.

Ask: Tell me measured concentration at 72 h for COc1cc(-c2cn(C)c(=O)c3cnc(N4CCC4)cc23)cc(OC)c1CN1CCC(CN2CCC3(CC2)CN(c2ccc4c(c2)C(=O)N(C2CCC(=O)NC2=O)C4)C3)CC1 (stereo not shown) [Compound 1] please.
Result: 1.18
